- System Tested: cAMP-dependent protein kinase (PKA) (Homo sapiens, UniProt P22694+P17612+P22612)
- Assay Name: Inhibition of protein kinase A mediated histone phosphorylation
- Format: protein assay
Reported Property: IC50

[[record]]
compound = "O=C1NC(=O)c2c1c1c3ccccc3[nH]c1c1c2c2cccc3c2n1C(CO)CC3 (stereo not drawn)"
reported_property = "IC50"
data_value = "858 nM"

[[record]]
compound = "O=C1NC(=O)c2c1c1c3ccc(F)cc3[nH]c1c1c2c2cccc3c2n1C(CO)CC3 (stereo not drawn)"
reported_property = "IC50"
data_value = "3020 nM"

[[record]]
compound = "O=C1NC(=O)c2c1c1c3ccc(Br)cc3[nH]c1c1c2c2cccc3c2n1CC(CO)C3 (stereo not drawn)"
reported_property = "IC50"
data_value = "> 2000 nM"


For each of the items listed, what is its IC50?
1. O=C1NC(=O)C(c2cn3c4c(cccc24)CC(CCl)C3)=C1c1c[nH]c2cc(F)ccc12 (stereo not drawn)
2. O=C1NC(=O)c2c1c1c3ccccc3ccc1c1c2c2cccc3c2n1C(CO)CC3 (stereo not drawn)
3. CNCC1Cc2cccc3c(C4=C(c5c[nH]c6cc(F)ccc56)C(=O)NC4=O)cn(c23)C1.Cl (stereo not drawn)
4. O=C1NC(=O)c2c1c1c3ccccc3ccc1c1c2c2cccc3c2n1CCC3CO (stereo not drawn)
5. O=C1NC(=O)c2c1c1c3ccccc3[nH]c1c1c2c2cccc3c2n1CCC3CO (stereo not drawn)
6. COc1ccc2c(c1)[nH]c1c2c2c(c3c4cccc5c4n(c13)CC(CO)C5)C(=O)NC2=O (stereo not drawn)
7. O=C1NC(=O)c2c1c1c3ccc(C(F)(F)F)cc3[nH]c1c1c2c2cccc3c2n1CC(CO)C3 (stereo not drawn)

> 20000 nM
> 2000 nM
383 nM
> 2000 nM
> 2000 nM
> 2000 nM
> 2000 nM

For each of the items listed, what is its IC50?
1. O=C1NC(=O)c2c1c1c3ccccc3ccc1c1c2c2cccc3c2n1CC(CO)C3 (stereo not drawn)
2. O=C1NC(=O)c2c1c1c3ccc(F)cc3[nH]c1c1c2c2cccc3c2n1CC(CO)C3 (stereo not drawn)
3. O=C1NC(=O)c2c1c1c3ccccc3[nH]c1c1c2c2cccc3c2n1CC(CO)C3 (stereo not drawn)

1: > 2000 nM; 2: > 2000 nM; 3: > 2000 nM
